# Test method notes: Human HepG2 cell viability assay in 384 well format
# Type: toxicity, cell-based
# Parameters: dose 125 nL, time 70.5 hour; concentration not given beside the values
# Cond: HepG2 cells, read-out: Inhibition
Quantity kind: cytotoxicity at 70.5 h (%)
Respond with the bare value in %.

Example molecules with recorded cytotoxicity at 70.5 h:
molecule=CCC(=O)N(c1ccc(C(=O)OC)cc1C)C(C)C reported_result=-3.07
molecule="Cc1cc(=O)c2ccccc2n1CC1CCN(C(C)C)C1 (stereo not drawn)" reported_result=-1.13
molecule="Cc1cc(C)c(C#N)c(N2CCC3(CCCN(CCO)C3=O)C2)n1 (stereo not drawn)" reported_result=12.1
molecule="CC(=O)N1CCC2(C1)CN(C(=O)C1CCOC1)C2 (stereo not drawn)" reported_result=-11.2
molecule="CC(C)N1c2sc(-c3ccccc3)nc2CC1C(=O)NC1CCCC1 (stereo not drawn)" reported_result=-6.93
molecule=COCCN(C/C=C/c1ccccc1)Cc1ccccn1 reported_result=6.25

Item under review: COCCN1CCc2ncc(CNc3cc(N(C)C)ncn3)n2CC1 . Reported cytotoxicity at 70.5 h?
-8.47

Item under review: Cc1ccc2nc(C(=O)N3CCNC(=O)C3c3cccc(F)c3)cn2c1 (stereo not drawn) . Reported cytotoxicity at 70.5 h?
24.1

###

# Test method notes: Human HepG2 cell viability assay in 384 well format
# Type: toxicity, cell-based
# Parameters: dose 125 nL, time 70.5 hour; concentration not given beside the values
# Cond: HepG2 cells, read-out: Inhibition
Quantity kind: cytotoxicity at 70.5 h (%)
Respond with the bare value in %.

Example compounds with recorded cytotoxicity at 70.5 h:
compound=CCc1nc(CN2CCCN(C(=O)Cc3cccs3)CC2)cs1 quantity_kind="cytotoxicity at 70.5 h" unit_abbreviation=% reported_result=-6.45
compound="CC(C)(C)c1cn(C2CCN(C3CCSC3)CC2)nn1 (centres undefined)" quantity_kind="cytotoxicity at 70.5 h" unit_abbreviation=% reported_result=-7.05

Item under review: CC(c1cccs1)N(C)C(=O)c1cc(CN(C)Cc2ccccc2)on1 (centres undefined) . Reported cytotoxicity at 70.5 h?
-4.76

Item under review: CCCc1nc(C)cc(N2CCC3(CCC(=O)N(CCOC)C3)CC2)n1 . Reported cytotoxicity at 70.5 h?
-9.62

Item under review: COCCS(=O)(=O)NCc1ccc(N(C)C)c(C)c1 . Reported cytotoxicity at 70.5 h?
-7.82

Item under review: O=C(Cc1ccc2c(c1)OCC2)Nc1nc[nH]n1 . Reported cytotoxicity at 70.5 h?
-8.03

Item under review: CCc1nc(CN(C)C2CCN(Cc3nc(C4CC4)no3)C2)no1 (centres undefined) . Reported cytotoxicity at 70.5 h?
31.8

Item under review: CC(C)CN1C[C@H](COCc2ccccc2)Oc2ncccc2C1=O . Reported cytotoxicity at 70.5 h?
23.1

Item under review: Cn1cc(C2CCCN2CCC(=O)N2CCc3sccc3C2)cn1 (centres undefined) . Reported cytotoxicity at 70.5 h?
-4.52

Item under review: CC(C)(C)c1ccc2c(c1)CCN2C(=O)c1[nH]c(=O)[nH]c(=O)c1N . Reported cytotoxicity at 70.5 h?
-6.44

###

cytotoxicity at 70.5 h: recorded values
# Test method notes: Human HepG2 cell viability assay in 384 well format
# Format: toxicity, cell-based
# Design: dose 125 nL, time 70.5 hour; concentration not given beside the values
# Cond: HepG2 cells, read-out: Inhibition
Respond with the bare value in %.

compound="CC/C=C(\\C)CN1CCC(CNC(=O)c2c[nH]c(=O)c(Cl)c2)C1 (stereo unspecified)" unit_abbreviation=% reported_result=12.8
compound="CC(C)(C)c1n[nH]c(C2CN(Cc3nnc(C4CC4)o3)CCO2)n1 (stereo unspecified)" unit_abbreviation=% reported_result=-6.03
compound="Cc1nc(C)n(C2CCCN(C(=O)CCCOc3ccccc3)C2)n1 (stereo unspecified)" unit_abbreviation=% reported_result=3.66
compound="Cc1cc(N(C)C)cc(C2CCN(S(=O)(=O)c3cccnc3)C2)n1 (stereo unspecified)" unit_abbreviation=% reported_result=1.07
compound="O=C(NCC1CCS(=O)(=O)C1)c1ccco1 (stereo unspecified)" unit_abbreviation=% reported_result=-8.58

# next compound below
Item under review: Cc1ccc(CN2CCc3onc(COc4cccnc4)c3C2)s1 . Reported cytotoxicity at 70.5 h?
-26.9

###

cytotoxicity at 70.5 h: recorded values
# Test method notes: Human HepG2 cell viability assay in 384 well format
# Type: toxicity, cell-based
# Parameters: dose 125 nL, time 70.5 hour; concentration not given beside the values
# Cond: HepG2 cells, read-out: Inhibition
Respond with the bare value in %.

Item under review: CSCCC(CO)NC(=O)c1sc(-c2ccccc2Cl)nc1C (centres undefined) . Reported cytotoxicity at 70.5 h?
-23.9

Item under review: CCc1ccc(CN2CCN(c3ccc(C#N)cc3)C(=O)C2)nc1 . Reported cytotoxicity at 70.5 h?
-10.5

Item under review: Cc1cn[nH]c1C1COCCN1C(=O)c1cc(F)ccc1F (centres undefined) . Reported cytotoxicity at 70.5 h?
5.9

###

# Test method notes: Human HepG2 cell viability assay in 384 well format
# Assay type: toxicity, cell-based
# Parameters: dose 125 nL, time 70.5 hour; concentration not given beside the values
# Cond: HepG2 cells, read-out: Inhibition
Quantity kind: cytotoxicity at 70.5 h (%)
Respond with the bare value in %.

Example molecules with recorded cytotoxicity at 70.5 h:
molecule=COc1ccc(C2=C(C)C(N3CCc4ccccc4C3)=NS2(=O)=O)cc1 reported_result=48.7
molecule=CS(=O)(=O)c1nccn1CCOc1ccccc1F reported_result=13.8
molecule=O=C(Cc1cnc(-c2c(Cl)cccc2Cl)s1)N1CCOCC1 reported_result=-13.9
molecule="COc1ccc(OC)c(C2CCN(C(=O)C3CCN(C(C)C)CC3)C2)c1 (configuration not stated)" reported_result=-8.95
molecule=Cc1cccc(CN2CCc3[nH]nc(C(=O)N(C)C)c3C2)n1 reported_result=33.4
molecule="COCCc1noc(CN2CCCCC2Cn2cncn2)n1 (configuration not stated)" reported_result=-8.74

Item under review: CCOC(=O)Cn1ccc(O)c(Cc2ccc(Cl)cc2Cl)c1=O . Reported cytotoxicity at 70.5 h?
0.692

Item under review: COCc1ccccc1CNCc1c(C(C)C)nn(C)c1N(C)C . Reported cytotoxicity at 70.5 h?
-0.306

Item under review: CCCC(=O)N1CCC(N2CC[C@@](O)(CCOC)[C@H](C)C2)CC1 . Reported cytotoxicity at 70.5 h?
-5

Item under review: Cc1cc2nc(C(C)C)cc(N3CCN(c4ccc(O)cc4)CC3)n2n1 . Reported cytotoxicity at 70.5 h?
-1.87

Item under review: CCN(CC(=O)NC(C)C)S(=O)(=O)N1CCCCCC1 . Reported cytotoxicity at 70.5 h?
-5.99

Item under review: N#Cc1ncn(Cc2c(F)cccc2Cl)n1 . Reported cytotoxicity at 70.5 h?
-5.34

###

# Test method notes: Human HepG2 cell viability assay in 384 well format
# Assay type: toxicity, cell-based
# Design: dose 125 nL, time 70.5 hour; concentration not given beside the values
# Cond: HepG2 cells, read-out: Inhibition
cytotoxicity at 70.5 h: recorded values
Respond with the bare value in %.

molecule=CS(=O)(=O)Cc1cc(F)ccc1NCc1nnsc1Cl reported_result=12.3
molecule="CN1CCCC(c2cccc(-c3cccc(C(F)(F)F)c3)n2)C1 (stereo unspecified)" reported_result=-2.8
molecule=CC(C)CN1CCN(Cc2nc3c(s2)CCCC3)[C@H]2CS(=O)(=O)C[C@H]21 reported_result=10.7
molecule=O=C(c1cccs1)N1CCC(n2nc(-c3ccco3)ccc2=O)CC1 reported_result=11.7
molecule="CCc1c(C)nn(CC(=O)NC(C(=O)O)c2c(C)n[nH]c2C)c1C (stereo unspecified)" reported_result=-7.94
molecule="Cc1cn[nH]c1C1CCCCN1C(=O)CCc1ccc(F)cc1 (stereo unspecified)" reported_result=-6.22

Item under review: CCOc1ccc(NC(=O)c2cc(C)c(C)o2)cc1CO . Reported cytotoxicity at 70.5 h?
26.7

###

# Test method notes: Human HepG2 cell viability assay in 384 well format
# Type: toxicity, cell-based
# Design: dose 125 nL, time 70.5 hour; concentration not given beside the values
# Cond: HepG2 cells, read-out: Inhibition
Quantity kind: cytotoxicity at 70.5 h (%)
Respond with the bare value in %.

molecule=Nc1nc2c(c(NC(=O)Nc3cccc(Cl)c3)n1)CCCC2 quantity_kind="cytotoxicity at 70.5 h" unit_abbreviation=% reported_result=13.3

Item under review: O=C(COC1CCCCC1)Nc1ccn(CCc2ccncc2)n1 . Reported cytotoxicity at 70.5 h?
-7.83

Item under review: O=C(c1cc(F)ccc1Br)N1CCN(C(=O)C2CC2)CC1 . Reported cytotoxicity at 70.5 h?
17.3

Item under review: CN(C)C(=O)C1CN(Cc2ccccn2)CCN(S(C)(=O)=O)C1 (configuration not stated) . Reported cytotoxicity at 70.5 h?
-3.97

Item under review: CN(CCC(=O)N1CCc2sccc2C1)Cc1ccc2c(c1)OCCO2 . Reported cytotoxicity at 70.5 h?
-2.14

Item under review: Nc1nccc(N2CCC(Cc3ccccc3Cl)(C(=O)O)CC2)n1 . Reported cytotoxicity at 70.5 h?
-2.75

Item under review: CCCC(=O)N(CCCN1CCOCC1)c1nc2c(C)ccc(Cl)c2s1 . Reported cytotoxicity at 70.5 h?
-3.12

Item under review: OCCN1CCN(CC2(O)CCCCC2)CC1 . Reported cytotoxicity at 70.5 h?
0.0783

Item under review: O=C(NCC1OCCc2cn(CC3CCOCC3)nc21)c1ccncc1 (configuration not stated) . Reported cytotoxicity at 70.5 h?
-10.6

Item under review: CC(C)(C)C(=O)N1CCC(n2nc(-c3ccco3)ccc2=O)CC1 . Reported cytotoxicity at 70.5 h?
-4.38

Item under review: O=C(C1CC1)N1CCN2C[C@H](c3ccccc3)[C@@H](CO)[C@H]2C1 . Reported cytotoxicity at 70.5 h?
-5.2

Item under review: CCc1nnc(CN2CCCC2Cn2cc(C)cn2)o1 (configuration not stated) . Reported cytotoxicity at 70.5 h?
17.8
